// data source = patent US4447608A

# System: L1210 cells
# Assay info: Growth inhibition of L1210 cells in suspension culture, 48 h count
# Assay type: cell-based
# Details: Mus musculus, L1210, 48 h; second results table; read-out: ID50 L1210 (Tissue culture)
Endpoint: pIC50
Scale explanation: pIC50 corresponds to minus log10 of a concentration expressed in moles per litre.

{"Mol smiles": "C#CCN(Cc1ccc2nc(N)[nH]c(=O)c2c1)c1ccc(C(=O)N[C@@H](CCC(=O)O)C(=O)O)c(C)c1", "pIC50": 4.62}

q: Item under review: "C#CCN(Cc1ccc2nc(N)[nH]c(=O)c2c1)c1ccc(C(=O)N[C@@H](CC(=O)OCC)C(=O)OCC)cc1" . Reported pIC50?
a: 4.00

q: And for "C#CCN(Cc1ccc2nc(N)[nH]c(=O)c2c1)c1ccc(C(=O)N[C@@H](CCC(=O)OCC)C(=O)OCC)c(Cl)c1" ?
a: 4.74

q: Subsequent entry: "Nc1nc(O)c2cc(CN(CCF)c3ccc(C(=O)N[C@@H](CCC(=O)O)C(=O)O)cc3)ccc2n1"
a: 4.80
